# system tested: GAL4 DBD-CfEcR(DEF)/VP16AD-MmRXRE (Choristoneura fumiferana, UniProt O77240)
# procedure details: 13B3 Assay (CHO stable cell line, luciferase reporter)
# condition label: 3.3 uM ligand; RLU ligand treated / RLU DMSO treated cells; average of two wells
# Description: GAL4 DBD-CfEcR(DEF)/VP16AD-MmRXRE: […] Luciferase reporter gene expression was measured 48 h after cell treatment using Bright-Glo™ Luciferase Assay System from Promega (E2650). Luminescence was detected at room temperature using a Dynex MLX microtiter plate luminometer. Each assay was conducted in two separate wells, and the two values were averaged. Fold inductions were calculated by dividing relative light units (“RLU”) in ligand treated cells with RLU in DMSO treated cells. […]
readout kind: Fold Induction, 13B3 Assay, 3.3 uM
Give bare numbers.

Lab note: GAL4 DBD-CfEcR(DEF)/VP16AD-MmRXRE (Choristoneura fumiferana, UniProt O77240) assay, enter Fold Induction, 13B3 Assay, 3.3 uM for CCc1c(OC)cccc1C(=O)NN(C(=O)c1cc(C)cc(C)c1)C(C)(C)C#N here
835

Lab note: GAL4 DBD-CfEcR(DEF)/VP16AD-MmRXRE (Choristoneura fumiferana, UniProt O77240) assay, enter Fold Induction, 13B3 Assay, 3.3 uM for CCc1c(OC)cccc1C(=O)NN(C(=O)c1cc(C)cc(C)c1)C(C)(C)COC(C)=O here
2

Lab note: GAL4 DBD-CfEcR(DEF)/VP16AD-MmRXRE (Choristoneura fumiferana, UniProt O77240) assay, enter Fold Induction, 13B3 Assay, 3.3 uM for COc1cccc(C(=O)N(NC(=O)c2ccc3c(c2C)OCCO3)C(C)(C)C)c1 here
1111

Batch lookup, Fold Induction, 13B3 Assay, 3.3 uM per entry.
1. CCc1c(C(=O)NN(C(=O)c2cccc(C)c2)C(C)(C)C)ccc2c1OCCO2
2. CCc1ccc(C(=O)NN(C(=O)c2cc(F)c(F)c(F)c2)C(C)(C)C)c(F)c1
3. Cc1cc(C)cc(C(=O)N(NC(=O)c2cccc(OC(C)C)c2C)C(C)(C)C)c1

1. 4582
2. 3513
3. 2297
